Let's look at some compounds and their measured melting point.

CCCOc1ccc2c(c1)oc(=O)c1cc(OC)ccc12 = 109.3 to 111.6 °C
COc1ccc2c(c1)c(=O)oc1cc(OCc3ccccc3F)ccc12 = 203.6 to 204.9 °C
CCCCOc1ccc2c(c1)oc(=O)c1ccccc12 [Compound 1f, 3-butoxy-6H-benzo[c]chromen-6-one] = 53.6 to 55.5 °C
CCCCOc1ccc2c(c1)oc(=O)c1cc(OC)ccc12 = 102.5 to 104.4 °C
COc1ccc2c(c1)c(=O)oc1cc(OCC3CCCO3)ccc12 (stereo not shown) = 113.1 to 115.5 °C
O=c1oc2cc(OCCN3CCOCC3)ccc2c2ccccc12 = 100.8 to 102.8 °C
CCCCCOc1ccc2c(c1)oc(=O)c1ccccc12 [Compound 1g, 3-(pentyloxy)-6H-benzo[c]chromen-6-one] = 69.4 to 71.8 °C
CC(C)Oc1ccc2c(c1)oc(=O)c1ccccc12 [Compound 1c, 3-Isopropoxy-6H-benzo[c]chromen-6-one] = 58.7 to 59.1 °C

Form: compound = O=c1oc2cc(OCC3CCCC3)ccc2c2ccccc12 ; melting point = 90.6 to 91.2 °C

According to the records, this compound CCOc1ccc2c(c1)oc(=O)c1cc(OC)ccc12 displays melting point of 141.1 to 143.8 °C

Lab note: Cc1cc(COc2ccc3c(c2)oc(=O)c2ccccc23)n(C)n1 gave melting point of 165.1 to 167.6 °C

melting point recorded for this compound, COc1ccc2c(c1)c(=O)oc1cc(OCC3OCCO3)ccc12 , is 147.9 to 150.1 °C

Short answer for COc1ccc2c(c1)c(=O)oc1cc(OC(C)C)ccc12 : melting point was 88.3 to 90.7 °C

* * *

Parameter melting point: see the listing below.

Worked cases, melting point given:
O=c1oc2cc(OCc3ccc(CO)cc3)ccc2c2ccccc12 = 147 to 149.2 °C
COc1ccc2c(c1)c(=O)oc1cc(OCc3ccc(CO)cc3)ccc12 = 192.4 to 194.6 °C
COc1ccc2c(c1)c(=O)oc1cc(OCCC3OCCO3)ccc12 = 151.6 to 153.2 °C
COc1ccc2c(c1)c(=O)oc1cc(OCC3CCCCC3)ccc12 = 139.8 to 140.1 °C
COc1ccc2c(c1)c(=O)oc1cc(OCCSC)ccc12 = 110.1 to 111.8 °C

Value of melting point reported for the compound COc1ccc2c(c1)c(=O)oc1cc(OCc3ccccc3)ccc12 is 141.7 to 142.5 °C

Input COc1cc(COc2ccc3c(c2)oc(=O)c2ccccc23)cc(OC)c1 . Output melting point: 133.8 to 135 °C

Value of measured melting point for the entry CCC(C)Oc1ccc2c(c1)oc(=O)c1cc(OC)ccc12 (stereo not shown) : 64.5 to 66.7 °C

Record COc1ccc2c(c1)c(=O)oc1cc(OCCO)ccc12 , field melting point: 166.8 to 168 °C

Documented melting point of CCCCCOc1ccc2c(c1)oc(=O)c1cc(OC)ccc12 : 73.1 to 75.5 °C

Lab note: measured melting point of CCOC(=O)COc1ccc2c(c1)oc(=O)c1ccccc12 was 124.7 to 125.8 °C

The value of melting point measured for the compound O=c1oc2cc(OCCn3cccn3)ccc2c2ccccc12 turned out to be 164.3 to 166.6 °C

The value of melting point measured for the compound O=c1oc2cc(OCC3CCCO3)ccc2c2ccccc12 (stereo not shown) turned out to be 82.8 to 84.1 °C
